All values here come from ChEMBL document CHEMBL1157624.

assayedSystem: Cholinesterase (Homo sapiens, UniProt P06276)
Sequence (P06276 whole entry): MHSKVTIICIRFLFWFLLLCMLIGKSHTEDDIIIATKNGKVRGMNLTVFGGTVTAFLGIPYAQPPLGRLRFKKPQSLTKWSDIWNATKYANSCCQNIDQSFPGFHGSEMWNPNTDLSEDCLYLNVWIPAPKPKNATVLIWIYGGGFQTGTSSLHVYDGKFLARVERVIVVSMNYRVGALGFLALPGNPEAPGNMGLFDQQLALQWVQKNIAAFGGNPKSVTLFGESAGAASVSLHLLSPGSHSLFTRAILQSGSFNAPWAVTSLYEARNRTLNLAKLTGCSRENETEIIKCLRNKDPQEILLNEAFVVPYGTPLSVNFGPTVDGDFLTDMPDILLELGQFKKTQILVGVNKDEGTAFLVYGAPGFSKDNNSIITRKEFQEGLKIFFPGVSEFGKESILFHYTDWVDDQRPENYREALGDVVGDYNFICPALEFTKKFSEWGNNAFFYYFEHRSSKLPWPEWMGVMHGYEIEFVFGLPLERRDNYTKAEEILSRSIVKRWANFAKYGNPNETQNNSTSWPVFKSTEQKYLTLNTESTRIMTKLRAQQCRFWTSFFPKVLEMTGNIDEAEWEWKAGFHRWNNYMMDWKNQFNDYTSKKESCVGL
readoutKind: pIC50
// scale note: pIC50 = -log10(conc_M); give the bare number

Known results for compounds:
COc1cc2c(cc1OC)C(=O)/C(=C/c1ccc(CN(C)Cc3ccccc3)cc1)C2 :: 3.84
CCN(CC)CCCCCCCOc1ccc2c(c1)C(=O)/C(=C/c1ccc(CN(C)Cc3ccccc3)cc1)C2 :: 4.48
CCN(CC)CCCCOc1ccc2c(c1)C/C(=C\c1ccc(CN(C)Cc3ccccc3)cc1)C2=O :: 4.64
CCN(CC)CCOc1ccc2c(c1)C/C(=C\c1ccc(CN(C)Cc3ccccc3)cc1)C2=O :: 4.65
COc1ccc2c(c1)C(=O)/C(=C/c1ccc(CN(C)Cc3ccccc3)cc1)CC2 :: 3.87

Consider the compound CN(Cc1ccccc1)Cc1ccc(/C=C2\Cc3ccc(OCCCCN4CCOCC4)cc3C2=O)cc1 . State its measured pIC50.
4.00

Assign pIC50 to the following record: COc1ccc2c(c1)C/C(=C\c1ccc(CN(C)Cc3ccccc3)cc1)C2=O
4.68

Answer with the recorded pIC50 for the compound listed here: CCN(CC)CCCOc1ccc2c(c1)C/C(=C\c1ccc(CN(C)Cc3ccccc3)cc1)C2=O
4.94

Supply measured pIC50 of CCN(CC)CCCOc1ccc2c(c1)C(=O)/C(=C/c1ccc(CN(C)Cc3ccccc3)cc1)C2 in your reply.
4.92

----------
Reported values of pIC50 for individual entries
assayedSystem: UniProt P22303
assayComment: Inhibition of human recombinant AChE preincubated for 20 mins before substrate addition by Ellman's method
Conceptually, pIC50 converts a concentration in mol/L into minus its log10.

Past entries and their recorded results:
COc1ccc2c(c1)C(=O)/C(=C/c1ccc(CN(C)Cc3ccccc3)cc1)CC2 :: 5.27
CCN(CC)CCCCCOc1ccc2c(c1)C(=O)/C(=C/c1ccc(CN(C)Cc3ccccc3)cc1)C2 :: 6.72

Please look at this molecule and report its pIC50: COc1ccc2c(c1)C/C(=C\c1ccc(CN(C)Cc3ccccc3)cc1)C2=O
4.54

Report pIC50 for COc1cc2c(cc1OC)C(=O)/C(=C/c1ccc(CN(C)Cc3ccccc3)cc1)CC2
6.74

In one line, give reported pIC50 of the entry CCN(CC)CCCCCCOc1ccc2c(c1)C(=O)/C(=C/c1ccc(CN(C)Cc3ccccc3)cc1)C2 .
6.42

Respond only with pIC50 recorded for CN(Cc1ccccc1)Cc1ccc(/C=C2\Cc3ccc(OCCCCN4CCCCC4)cc3C2=O)cc1
6.74

Kindly indicate its recorded pIC50. Item: CCN(CC)CCOc1ccc2c(c1)C/C(=C\c1ccc(CN(C)Cc3ccccc3)cc1)C2=O
5.54

Please supply the value of reported pIC50 for the item CCN(CC)CCCCCOc1ccc2c(c1)CC/C(=C\c1ccc(CN(C)Cc3ccccc3)cc1)C2=O
7.25

Dear colleague, please send me the reported pIC50 for COc1ccc2c(c1)C(=O)/C(=C/c1ccc(CN(C)Cc3ccccc3)cc1)C2 when you can.
6.20

----------
assayComment: Inhibition of amyloid beta (1-42) self-aggregation at 10 uM after 24 hrs by thioflavin T-based fluorometric assay
readoutKind: inhibition (%)
Report the value in % with no unit label.

Please review the following examples before continuing.
CN(Cc1ccccc1)Cc1ccc(/C=C2\Cc3ccc(OCCCCCN4CCCCC4)cc3C2=O)cc1 :: 27.9
CCN(CC)CCCCCOc1ccc2c(c1)C(=O)/C(=C/c1ccc(CN(C)Cc3ccccc3)cc1)C2 :: 27.7
CCN(CC)CCCCCOc1ccc2c(c1)CC/C(=C\c1ccc(CN(C)Cc3ccccc3)cc1)C2=O :: 26.4

Consider now this further compound.
Determine from records and report inhibition for CN(Cc1ccccc1)Cc1ccc(/C=C2\CCc3cc(OCCCCCN4CCCCC4)ccc3C2=O)cc1
26.9

----------
assayedSystem: Acetylcholinesterase (Homo sapiens)
assayComment: Inhibition of human recombinant AChE-mediated hydrolysis of acetylcholine by Lineweaver-Burke plot analysis
readoutKind: pKi
Answer as the number alone; pKi is minus log10 of concentration in mol/L.

Output measured pKi for this item: CN(Cc1ccccc1)Cc1ccc(/C=C2\CCc3cc(OCCCCCN4CCCCC4)ccc3C2=O)cc1
7.21

----------
# collection of pIC50 values tested on UniProt:P06276
Answer as the number alone; pIC50 is minus log10 of concentration in mol/L.

CCN(CC)CCOc1ccc2c(c1)C(=O)/C(=C/c1ccc(CN(C)Cc3ccccc3)cc1)C2 :: 4.92
COc1cc2c(cc1OC)C(=O)/C(=C/c1ccc(CN(C)Cc3ccccc3)cc1)CC2 :: 4.14
CCN(Cc1ccccc1)Cc1ccc(/C=C2\Cc3ccc(OC)cc3C2=O)cc1 :: 4.01

For UniProt:P06276, give pIC50 of the listed compound: CCN(CC)CCCCCOc1ccc2c(c1)C(=O)/C(=C/c1ccc(CN(C)Cc3ccccc3)cc1)C2
5.57

Provide measured pIC50 on UniProt:P06276 for COc1ccc2c(c1)CC/C(=C\c1ccc(CN(C)Cc3ccccc3)cc1)C2=O please.
4.04

----------
assayedSystem: UniProt:P06276
assayComment: Inhibition of human BuChE preincubated for 20 mins before substrate addition by Ellman's method
Quick reference: IC50 of the listed items.
// units = µM; emit number, no label

Worked examples follow.
CN(Cc1ccccc1)Cc1ccc(/C=C2\CCc3cc(OCCCCCN4CCCCC4)ccc3C2=O)cc1 :: 5.01
COc1ccc2c(c1)C(=O)/C(=C/c1ccc(CN(C)Cc3ccccc3)cc1)C2 :: 7.93

Return value of IC50 for input CN(Cc1ccccc1)Cc1ccc(/C=C2\Cc3ccc(OCCCCN4CCCCC4)cc3C2=O)cc1 , no commentary.
10

----------
This section presents compounds with their documented Ratio IC50 values.
Species: Homo sapiens
assayComment: Selectivity ratio of IC50 for human BuChE to human recombinant AChE
Just the number, please, no unit after it.

Use these answered entries as a reference point.
CCN(Cc1ccccc1)Cc1ccc(/C=C2\Cc3ccc(OC)cc3C2=O)cc1 :: 19.9
CCN(CC)CCOc1ccc2c(c1)C(=O)/C(=C/c1ccc(CN(C)Cc3ccccc3)cc1)C2 :: 7.77
CN(Cc1ccccc1)Cc1ccc(/C=C2\Cc3ccc(OCCCCN4CCOCC4)cc3C2=O)cc1 :: 112

Here's the next entry for you.
Give the reported Ratio IC50 for this compound. COc1cc2c(cc1OC)C(=O)/C(=C/c1ccc(CN(C)Cc3ccccc3)cc1)CC2
404

----------
In this section we review reported Ratio IC50 values for a set of molecules.
Species: Homo sapiens
assayComment: Selectivity ratio of IC50 for human BuChE to human recombinant AChE
Just the number.

CN(Cc1ccccc1)Cc1ccc(/C=C2\Cc3ccc(OCCCCCN4CCCCC4)cc3C2=O)cc1 :: 38.5
CCN(CC)CCCCCCCOc1ccc2c(c1)C(=O)/C(=C/c1ccc(CN(C)Cc3ccccc3)cc1)C2 :: 64.7
CCN(CC)CCCCOc1ccc2c(c1)C/C(=C\c1ccc(CN(C)Cc3ccccc3)cc1)C2=O :: 5.8
COc1cc2c(cc1OC)C(=O)/C(=C/c1ccc(CN(C)Cc3ccccc3)cc1)C2 :: 126
CCN(CC)CCCCCCOc1ccc2c(c1)C(=O)/C(=C/c1ccc(CN(C)Cc3ccccc3)cc1)C2 :: 53.9

# evaluate next
Return reported Ratio IC50. Input molecule: COc1ccc2c(c1)C(=O)/C(=C/c1ccc(CN(C)Cc3ccccc3)cc1)C2
12.6

----------
assayedSystem: Acetylcholinesterase (Homo sapiens, UniProt P22303)
Sequence (P22303 whole entry): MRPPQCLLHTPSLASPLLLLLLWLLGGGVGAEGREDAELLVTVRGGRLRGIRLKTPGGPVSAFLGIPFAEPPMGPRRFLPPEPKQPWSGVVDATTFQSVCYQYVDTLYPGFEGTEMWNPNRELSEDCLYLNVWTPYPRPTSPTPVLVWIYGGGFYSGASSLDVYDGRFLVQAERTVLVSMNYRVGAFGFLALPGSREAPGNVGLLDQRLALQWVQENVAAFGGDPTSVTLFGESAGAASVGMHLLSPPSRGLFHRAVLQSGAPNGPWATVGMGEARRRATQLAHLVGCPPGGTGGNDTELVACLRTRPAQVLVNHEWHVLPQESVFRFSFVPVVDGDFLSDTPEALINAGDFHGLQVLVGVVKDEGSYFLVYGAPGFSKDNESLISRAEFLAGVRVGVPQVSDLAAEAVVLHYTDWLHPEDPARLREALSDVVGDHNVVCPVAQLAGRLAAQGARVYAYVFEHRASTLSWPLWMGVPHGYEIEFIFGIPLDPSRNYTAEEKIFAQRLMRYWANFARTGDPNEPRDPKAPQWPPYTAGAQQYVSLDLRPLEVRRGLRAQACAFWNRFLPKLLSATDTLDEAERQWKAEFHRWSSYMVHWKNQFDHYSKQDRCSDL
assayComment: Inhibition of human recombinant AChE preincubated for 20 mins before substrate addition by Ellman's method
Entries and their IC50 values follow.
Respond numerically; units are µM and should not be typed.

Record excerpt, results attached:
COc1cc2c(cc1OC)C(=O)/C(=C/c1ccc(CN(C)Cc3ccccc3)cc1)C2 :: 1.14
CN(Cc1ccccc1)Cc1ccc(/C=C2\Cc3ccc(OCCCCN4CCOCC4)cc3C2=O)cc1 :: 0.89

Report value: IC50, system: Acetylcholinesterase (Homo sapiens, UniProt P22303), compound: CCN(CC)CCCOc1ccc2c(c1)C(=O)/C(=C/c1ccc(CN(C)Cc3ccccc3)cc1)C2
1.32

----------
assayedSystem: UniProt:P06276
pIC50: −log10 of the molar value.
Answer no if pIC50 is under 5, and yes if it is 5 or more.

CCN(CC)CCCCCCOc1ccc2c(c1)C(=O)/C(=C/c1ccc(CN(C)Cc3ccccc3)cc1)C2 :: no
CN(Cc1ccccc1)Cc1ccc(/C=C2\Cc3ccccc3C2=O)cc1 :: no

Okay, next one:
Textbook exercise: given the entry CCN(CC)CCCCOc1ccc2c(c1)C(=O)/C(=C/c1ccc(CN(C)Cc3ccccc3)cc1)C2 , state whether its pIC50 is greater than or equal to 5.
yes

----------
assayedSystem: Acetylcholinesterase (Homo sapiens)
assayComment: Inhibition of human recombinant AChE-induced amyloid beta (1-40) aggregation at 100 uM by thioflavin T fluorescence assay
readoutKind: inhibition (%)
Numeric only. Scale: %

Worked cases, inhibition given:
CCN(CC)CCCCCOc1ccc2c(c1)CC/C(=C\c1ccc(CN(C)Cc3ccccc3)cc1)C2=O :: 42.9
CN(Cc1ccccc1)Cc1ccc(/C=C2\CCc3cc(OCCCCCN4CCCCC4)ccc3C2=O)cc1 :: 48.3
CCN(CC)CCCCCOc1ccc2c(c1)C(=O)/C(=C/c1ccc(CN(C)Cc3ccccc3)cc1)C2 :: 29.7

Alright, here's another compound for you.
Write down inhibition measured for item CN(Cc1ccccc1)Cc1ccc(/C=C2\Cc3ccc(OCCCCCN4CCCCC4)cc3C2=O)cc1
46.8
